test: Quantitative High-Throughput drug screen in 47 multiple myeloma cell lines against the NCATS MIPE library collection: KMS11_JCRBsus cell viability assay (AID 1919873); conditions: KMS11 myeloma viability, CellTiter-Glo ATP luminescence, 48 h; series mostly up to 45.8 µM; further: nearly all actives have a fitted effect of over 50% in size; further: potency means the concentration at half of the fitted maximal effect
Inconclusive results are not listed. Active and inactive are the calls of the source. The call rests on the fitted dose curve; in most records, active means well fitted cell-killing curve with a large enough effect; inconclusive means small, poorly fitted or top-dose-only effect, or effect the other way; inactive means no such curve, though single readings can be large or run the other way.
quantity: Potency

Example cases with answers are listed next.
compound	Potency
CCOc1cc(CC(=O)N[C@@H](CC(C)C)c2ccccc2N2CCCCC2)ccc1C(=O)O	inactive
CC(C)c1ccc2oc3nc(N)c(C(=O)O)cc3c(=O)c2c1	inactive
Cc1c(C(=O)NN2CCCCC2)nn(-c2ccc(Cl)cc2Cl)c1-c1ccc(Cl)cc1	23.5 µM (active)
COc1cc2c(N3CCN(C(=O)Nc4ccc(OC(C)C)cc4)CC3)ncnc2cc1OCCCN1CCCCC1	26.4 µM (active)
CNC[C@H](O)c1ccc(O)c(O)c1	19.1 µM (active)
O=C(CS(=O)Cc1ccco1)NCC=CCOc1cc(CN2CCCCC2)ccn1 (stereo not drawn)	inactive

Problem: Param item = COc1cc2c(cc1OC)C1CC(=O)C(CC(C)C)CN1CC2 (stereo not drawn) ; retrieve measured Potency.
Result: inactive

Problem: Again, but for CC(C)(S)[C@@H](N)C(=O)O
Result: inactive

Problem: Again, but for CN(C)c1ccc2nc3ccc(=[N+](C)C)cc-3sc2c1
Result: 2.64 µM (active)

---

assay: S16 Schwann cell PMP22 intronic element firefly luciferase assay (AID 624032); conditions: S16 rat Schwann cells, PMP22 element FLuc, 24 h; series mostly up to 57.5 µM; further: nearly all actives have a fitted effect of over 30% in size
Inconclusive results are not listed. The source made the active and inactive calls. The call rests on the fitted dose curve; in most records, active means well fitted inhibition curve with a large enough effect; inconclusive means small, poorly fitted or top-dose-only effect; inactive means no such curve, though single readings can be large or run the other way.
Parameter call: string, one of active, inactive

compound	category_label
C[C@H](Cn1cnc2c(N)ncnc21)OCP(=O)(O)O	inactive
Cc1cc(C2CCCCC2)n(O)c(=O)c1	active
O=C(O)c1cc(=O)c2c(OCC(O)COc3cccc4oc(C(=O)O)cc(=O)c34)cccc2o1	inactive
CCCOc1ccc2nc(NC(=O)OC)[nH]c2c1	inactive

Problem: // param item: CCCCCCCCOc1ccccc1C(=O)Nc1ccc(C(=O)OCC[N+](C)(CC)CC)cc1 ; yields the recorded call
Result: inactive

Problem: Again, but for O=C(O)c1cn(-c2ccc(F)cc2)c2cc(N3CCNCC3)c(F)cc2c1=O
Result: inactive

Problem: Again, but for C[Se]CCC(N)C(=O)O (centres undefined)
Result: inactive

Problem: Again, but for CCCc1cc(=O)[nH]c(=S)[nH]1
Result: inactive

Problem: Again, but for N=C(N=C(N)N)N1CCOCC1
Result: inactive

---

Experiment: Quantitative High-Throughput drug screen in 47 multiple myeloma cell lines against the NCATS MIPE library collection: ARD_JJKsccE7 cell viability assay (AID 1918929)
Details: ARD myeloma cell line viability, CellTiter-Glo, 48 h; series mostly up to 45.8 µM
From the text: PI: Beverly A. Mock Ph.D. Laboratory of Cancer Biology and Genetics, Center for Cancer Research, National Cancer Institute, National Institute of Health, Bethesda, Maryland […] 5; Detector; 425V; Luminescence; Viewlux PerkinElmer. […] 1. […] Briefly, the corresponding myeloma cell lines were screened in 1,536-well plates with 500 cells, 5-uL per well for inhibition of cell viability (assessed by measuring ATP levels with CellTiterGlo). […]
Records with an inconclusive call do not appear. The source made the active and inactive calls. The call rests on the fitted dose curve; in most records, active means well fitted cell-killing curve with a large enough effect; inconclusive means small, poorly fitted or top-dose-only effect, or effect the other way; inactive means no such curve, though single readings can be large or run the other way.
Parameter call: string, one of active, inactive

compound	category_label
N=C(N)c1ccc2cc(OC(=O)c3ccc(N=C(N)N)cc3)ccc2c1	inactive

Problem: // param item: COc1cc2c(cc1OC)C1CC(=O)C(CC(C)C)CN1CC2 (stereo not given) ; yields the recorded call
Result: inactive
